target: Glucose-dependent insulinotropic receptor (Homo sapiens, UniProt Q8TDV5); assay: Agonist activity at human GPR119 expressed in HEK293 cells assessed as cAMP accumulation after 30 mins
Sequence (Q8TDV5 whole entry): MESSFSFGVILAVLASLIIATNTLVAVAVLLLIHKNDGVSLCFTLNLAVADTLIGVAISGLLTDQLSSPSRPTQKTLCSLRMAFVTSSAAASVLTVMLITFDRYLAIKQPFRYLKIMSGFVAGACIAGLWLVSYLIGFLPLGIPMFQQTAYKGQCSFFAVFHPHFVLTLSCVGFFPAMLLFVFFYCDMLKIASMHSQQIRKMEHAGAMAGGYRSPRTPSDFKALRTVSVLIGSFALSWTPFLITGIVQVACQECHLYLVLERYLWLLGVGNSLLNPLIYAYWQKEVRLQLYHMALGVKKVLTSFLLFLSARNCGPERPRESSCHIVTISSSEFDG
REPORTED ENDPOINT: EC50

ENTRY SMILES	VALUE OBSERVED
Cc1cc2c(c(Oc3cccc(NC(=O)c4ccc(Cl)cc4)c3)n1)C(=O)N(C(C)C)C2=O	> 30 µM
Cc1cc2c(c(Oc3cccc(N(C)S(=O)(=O)c4ccc(Cl)cc4)c3)n1)C(=O)N(C(C)C)C2=O	0.011 µM
Cc1cc2c(c(Oc3cccc(NS(=O)(=O)c4ccc(Cl)cc4)c3)n1)C(=O)N(C1CCCC1)C2=O	0.069 µM
Cc1cc2c(c(Oc3cc(NS(=O)(=O)c4ccc(Cl)cc4)ccc3Cl)n1)C(=O)N(C(C)C)C2=O	0.033 µM
CC(C)OC(=O)N1CCC(Oc2ncnc3c2cnn3-c2ccc(S(C)(=O)=O)cc2)CC1	0.041 µM
Cc1cc2c(c(Oc3cc(F)cc(NS(=O)(=O)c4ccc(Cl)cc4)c3)n1)C(=O)N(C(C)C)C2=O	0.357 µM
O=C1c2cc(C3CC3)nc(Oc3cccc(NS(=O)(=O)c4ccc(Cl)cc4)c3)c2C(=O)N1C1CC1	0.045 µM
Cc1cc2c(c(Oc3cccc(NS(=O)(=O)c4ccc(Cl)cc4)c3)n1)C(=O)NC2=O	0.121 µM
Cc1cc2c(c(Oc3ccc(C)c(NS(=O)(=O)c4ccc(Cl)cc4)c3)n1)C(=O)N(C(C)C)C2=O	0.009 µM
Cc1cc2c(c(Nc3ccc(C)c(NS(=O)(=O)c4ccc(Cl)cc4)c3)n1)C(=O)N(C(C)C)C2=O	0.382 µM
Cc1cc2c(c(Oc3cccc(NS(=O)(=O)c4ccc(Cl)cc4)c3)n1)C(=O)N(c1ccccc1)C2=O	0.299 µM
Cc1cc2c(c(Oc3cccc(NS(=O)(=O)c4ccc(Cl)cc4)c3)n1)C(=O)N(C1CC1)C2=O	0.015 µM
Cc1cc2c(c(Oc3cccc(NS(=O)(=O)c4ccc(Cl)cc4)c3F)n1)C(=O)N(C(C)C)C2=O	0.493 µM
Cc1cc2c(c(Oc3cccc(NS(=O)(=O)c4ccc(Cl)cc4)c3)n1)C(=O)N(C)C2=O	0.023 µM
Cc1cc2c(c(Oc3cc(NS(=O)(=O)c4ccc(Cl)cc4)ccc3F)n1)C(=O)N(C(C)C)C2=O	0.016 µM
Cc1cc2c(c(Oc3cccc(S(=O)(=O)Nc4ccc(Cl)cc4)c3)n1)C(=O)N(C(C)C)C2=O	0.238 µM
CCN1C(=O)c2cc(C)nc(Oc3cccc(NS(=O)(=O)c4ccc(Cl)cc4)c3)c2C1=O	0.011 µM
Cc1cc2c(c(Oc3cccc(NS(=O)(=O)c4ccc(Cl)cc4)c3)n1)C(=O)N(C(C)C)C2=O	0.013 µM
Cc1cc2c(c(Sc3ccc(C)c(NS(=O)(=O)c4ccc(Cl)cc4)c3)n1)C(=O)N(C(C)C)C2=O	0.224 µM
COc1cc2c(c(Oc3cccc(NS(=O)(=O)c4ccc(Cl)cc4)c3)n1)C(=O)N(C1CC1)C2=O	0.019 µM
Cc1cc2c(c(Sc3cccc(NS(=O)(=O)c4ccc(Cl)cc4)c3)n1)C(=O)N(C(C)C)C2=O	0.019 µM
